target: Melanocyte-stimulating hormone receptor (Homo sapiens)
Sequence (Q01726 whole entry): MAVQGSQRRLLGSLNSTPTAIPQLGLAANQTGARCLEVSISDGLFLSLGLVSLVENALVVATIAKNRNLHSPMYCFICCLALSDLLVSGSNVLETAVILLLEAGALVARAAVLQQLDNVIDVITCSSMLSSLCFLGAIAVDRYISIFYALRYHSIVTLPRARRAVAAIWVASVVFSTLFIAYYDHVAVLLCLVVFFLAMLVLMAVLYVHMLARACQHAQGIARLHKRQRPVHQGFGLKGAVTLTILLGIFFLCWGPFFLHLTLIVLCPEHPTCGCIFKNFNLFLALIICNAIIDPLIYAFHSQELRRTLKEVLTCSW
testReadout: Ki (nM)

Prompt: Field: Ki (Melanocyte-stimulating hormone receptor (Homo sapiens)). Entry: N=C(N)NCCC[C@H](NC(=O)[C@H](Cc1ccccc1)NC(=O)[C@H](Cc1c[nH]cn1)NC(=O)c1ccccc1)C(=O)N[C@@H](Cc1c[nH]c2ccccc12)C(N)=O
Response: 30

[I] N=C(N)NCCC[C@H](NC(=O)[C@H](Cc1ccccc1)NC(=O)[C@H](Cc1cnc[nH]1)NC(=O)Cc1ccc(Cl)cc1)C(=O)N[C@@H](Cc1c[nH]c2ccccc12)C(N)=O
[II] CSCC(=O)N[C@@H](Cc1cnc[nH]1)C(=O)N[C@@H](Cc1ccccc1)C(=O)N[C@@H](CCCNC(=N)N)C(=O)N[C@@H](Cc1c[nH]c2ccccc12)C(N)=O
[III] N=C(N)NCCC[C@H](NC(=O)[C@H](Cc1ccccc1)NC(=O)[C@H](Cc1c[nH]cn1)NC(=O)Cc1ccccc1)C(=O)N[C@@H](Cc1c[nH]c2ccccc12)C(N)=O
[IV] N=C(N)NCCC[C@H](NC(=O)[C@H](Cc1ccccc1)NC(=O)[C@H](Cc1cnc[nH]1)NS(=O)(=O)c1ccc(Cl)cc1)C(=O)N[C@@H](Cc1c[nH]c2ccccc12)C(N)=O
[V] CC(=O)N[C@@H](Cc1c[nH]cn1)C(=O)N[C@@H](Cc1ccccc1)C(=O)N[C@@H](CCCN=C(N)N)C(=O)N[C@@H](Cc1c[nH]c2ccccc12)C(N)=O
Prompt: Ascending by Ki, please. Write the labels, ordered according to the request.
Response: I, III, V, II, IV

[a] N=C(N)NCCC[C@H](NC(=O)[C@H](Cc1ccccc1)NC(=O)[C@H](Cc1c[nH]cn1)NC(=O)COc1ccc(Cl)cc1)C(=O)N[C@@H](Cc1c[nH]c2ccccc12)C(N)=O
[b] NC(=O)[C@H](Cc1c[nH]c2ccccc12)NC(=O)[C@H](CCCN=C(N)N)NC(=O)[C@@H](Cc1ccccc1)NC(=O)[C@H](Cc1cnc[nH]1)NC(=O)CCCc1ccccc1
[c] N=C(N)NCCC[C@H](NC(=O)[C@H](Cc1ccccc1)NC(=O)[C@H](Cc1cnc[nH]1)NC(=O)C1CC1)C(=O)N[C@@H](Cc1c[nH]c2ccccc12)C(N)=O
[d] COCC(=O)N[C@@H](Cc1cnc[nH]1)C(=O)N[C@@H](Cc1ccccc1)C(=O)N[C@@H](CCCNC(=N)N)C(=O)N[C@@H](Cc1c[nH]c2ccccc12)C(N)=O
Prompt: Ordering criterion: Ki; begin with the maximum. Write the labels, ordered according to the request.
Response: d, c, a, b

---

pKi: −log10 of the molar value.
Here's what we have: pKi numbers for UniProtKB P41968.
Sequence (P41968 whole entry): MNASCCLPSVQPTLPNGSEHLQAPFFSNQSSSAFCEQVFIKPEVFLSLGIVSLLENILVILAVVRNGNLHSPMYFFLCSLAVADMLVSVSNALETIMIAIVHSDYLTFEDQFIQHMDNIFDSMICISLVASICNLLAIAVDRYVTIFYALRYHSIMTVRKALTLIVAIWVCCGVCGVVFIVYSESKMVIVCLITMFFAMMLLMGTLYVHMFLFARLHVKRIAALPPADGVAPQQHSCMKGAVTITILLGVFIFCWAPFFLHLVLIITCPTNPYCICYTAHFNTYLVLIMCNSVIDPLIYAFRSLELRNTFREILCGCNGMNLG
testReadout: pKi

Some entries whose results are on file:
Prompt: Which measured pKi value corresponds to CSCC(=O)N[C@@H](Cc1cnc[nH]1)C(=O)N[C@@H](Cc1ccccc1)C(=O)N[C@@H](CCCNC(=N)N)C(=O)N[C@@H](Cc1c[nH]c2ccccc12)C(N)=O ?
Response: 6.64

Prompt: Thanks! And N=C(N)NCCC[C@H](NC(=O)[C@H](Cc1ccccc1)NC(=O)[C@H](Cc1c[nH]cn1)NC(=O)Cc1ccccc1)C(=O)N[C@@H](Cc1c[nH]c2ccccc12)C(N)=O ?
Response: 7.18

[P] N=C(N)NCCC[C@H](NC(=O)[C@H](Cc1ccccc1)NC(=O)[C@H](Cc1c[nH]cn1)NC(=O)C(O)Cc1ccccc1)C(=O)N[C@@H](Cc1c[nH]c2ccccc12)C(N)=O (some centres undefined)
[Q] N=C(N)NCCC[C@H](NC(=O)[C@H](Cc1ccccc1)NC(=O)[C@H](Cc1c[nH]cn1)NC(=O)CCc1ccccc1)C(=O)N[C@@H](Cc1c[nH]c2ccccc12)C(N)=O
Prompt: Would you kindly point out which of P and Q has the smaller pKi figure? Lab note: record the label of whichever item you select.
Response: P
